Reference source for all entries: patent US20130287807A1

system: monoclonal antibody MV-002; experiment: In vitro binding assay (ELISA), BSA-coupled peptides, parental antibody MV-002; design: species or system C57/B16 mice; conditions: Table 1 (MV-002); peptide-BSA on plate, compared to original epitope
MEASURE NAME: Binding Capacity

Answered cases to consult:
{"SUBSTANCE": "GDLKFPLC [p4683]", "Binding Capacity": "3 (strong binding :>320000)"}
{"SUBSTANCE": "GQIWFISC [p4666]", "Binding Capacity": "1 (weak binding :<40000)"}
{"SUBSTANCE": "GMIVFPHC [p4679]", "Binding Capacity": "3 (strong binding :>320000)"}
{"SUBSTANCE": "GQIQFPLC [p4697]", "Binding Capacity": "3 (strong binding :>320000)"}
{"SUBSTANCE": "GELWFPC [p4673]", "Binding Capacity": "3 (strong binding :>320000)"}
{"SUBSTANCE": "KLPLFVMC [p4691]", "Binding Capacity": "1 (weak binding :<40000)"}
{"SUBSTANCE": "GELFFPKC [p4685]", "Binding Capacity": "3 (strong binding :>320000)"}
{"SUBSTANCE": "THQRLWFC [p4693]", "Binding Capacity": "3 (strong binding :>320000)"}

Prompt: Which Binding Capacity value is on record for SHQRLWFC [p4674] ?
Completion: 3 (strong binding :>320000)

Prompt: What do we get for HMRMYFEC [p4687] ?
Completion: 3 (strong binding :>320000)

Prompt: What do we get for GEIRFELC [p4796] ?
Completion: 2 (medium binding :40000-320000)

Prompt: What do we get for GTIFFRDC [p4692] ?
Completion: 1 (weak binding :<40000)

Prompt: What do we get for GQIKFAQC [p4694] ?
Completion: 3 (strong binding :>320000)

Prompt: What do we get for GELFFEKC [p4795] ?
Completion: 2 (medium binding :40000-320000)

Prompt: What do we get for GEILFGMC [p4689] ?
Completion: 3 (strong binding :>320000)
